Catalogue of inhibition at 50 µM readings, one per entry.
- Measurement target: ASIC1a (Homo sapiens)
- Sequence (P78348 1-528): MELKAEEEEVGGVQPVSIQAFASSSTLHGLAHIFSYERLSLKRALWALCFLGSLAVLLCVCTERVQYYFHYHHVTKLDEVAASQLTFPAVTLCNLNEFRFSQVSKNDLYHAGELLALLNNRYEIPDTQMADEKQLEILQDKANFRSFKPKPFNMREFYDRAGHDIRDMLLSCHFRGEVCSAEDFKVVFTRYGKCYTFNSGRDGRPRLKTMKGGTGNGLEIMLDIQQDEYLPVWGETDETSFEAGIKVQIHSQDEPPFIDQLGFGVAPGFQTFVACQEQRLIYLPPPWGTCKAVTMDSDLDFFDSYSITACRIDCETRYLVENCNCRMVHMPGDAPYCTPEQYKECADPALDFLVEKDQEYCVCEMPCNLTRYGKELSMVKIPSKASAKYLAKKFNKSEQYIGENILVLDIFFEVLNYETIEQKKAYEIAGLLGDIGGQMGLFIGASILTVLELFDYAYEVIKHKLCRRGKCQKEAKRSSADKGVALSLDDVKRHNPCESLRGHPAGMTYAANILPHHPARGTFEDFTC
- Experiment: Two-electrode voltage clamp in Xenopus laevis oocytes (Xo), acid-induced currents
- Format: cell-based
- Set-up: expressed in transfected cells; host or cells: Xenopus laevis oocytes (nuclear microinjection of expression vector such as pcDNA3)
- Condition label: 50 μM, Xenopus oocytes; read-out: % inh. at 50 μM (Xo)
Measured attribute: inhibition at 50 µM

[[record]]
compound = "CN1CCc2c(-c3ccccc3)cc3c(c2C1)NCC/C3=N/O"
result = "20 to 40%"

[[record]]
compound = "CN1CCc2c(-c3ccccc3)cc3c(c2C1)NC(=O)/C3=N/NC(N)=S"
result = "30 to 50%"

[[record]]
compound = "CCOC(C)O/N=C1/C(=O)Nc2c1cc(-c1cc(F)ccc1OC)c1c2CN(C)CC1 (stereo not drawn)"
result = "< 25%"

[[record]]
compound = "CCOC(=O)CNc1ccc(-c2ccccc2)c2c1CN(C)CC2"
result = "< 25%"

[[record]]
compound = "CCN1CCc2c(-c3ccccc3)cc3[nH]c(=O)[nH]c3c2C1"
result = "< 25%"

[[record]]
compound = "CN1CCc2c(-c3ccccc3)ccc(CNCC(=O)O)c2C1"
result = "< 25%"

[[record]]
compound = "COc1ccc(F)cc1-c1cc(C#N)c(N2C(=O)CCC2=O)c2c1CCN(C)C2"
result = "< 25%"

[[record]]
compound = "CN1CCc2c(-c3ccccc3)ccc(CNC(=O)c3ccccc3)c2C1"
result = "< 25%"

[[record]]
compound = "CN1CCc2c(-c3ccccc3)cc3c(c2C1)NC(=O)/C3=C/c1cccc(C(=O)O)c1"
result = "< 25%"

